# Assay info: Metabolic stability in liver microsomes (intrinsic clearance)
# Format: in vitro ADME
# Condition parameters: mouse, microsomes, pH 7.4, mouse liver microsomes; read-out: Metabolic Stability (liver microsome intrinsic clearance) Clearance (mouse, μl/min./mg protein)
Measured quantity: microsomal CLint at 1 µM (µL/min/mg)

>  <Compound>
CCc1nc2ncc(C)cn2c1C(=O)NCc1ccc(-c2cn3c(n2)CC(C(F)(F)F)CC3)cc1 (stereo not drawn) [Compound 3ab]

>  <Measured quantity>
microsomal CLint at 1 µM

>  <Qualifier>
=

>  <Assay result>
13.6

$$$$
>  <Compound>
CCc1nc2ncccn2c1C(=O)NCc1ccc(-c2cc3n(n2)CCC(C(F)(F)F)C3)cc1 (stereo not drawn) [Compound 180]

>  <Measured quantity>
microsomal CLint at 1 µM

>  <Qualifier>
=

>  <Assay result>
9.9

$$$$
>  <Compound>
CCc1nc2ncc(C)cn2c1C(=O)NCc1ccc(-c2nc3n(n2)CCC(C(F)(F)F)C3)cc1 (stereo not drawn) [Compound 1ab]

>  <Measured quantity>
microsomal CLint at 1 µM

>  <Qualifier>
<

>  <Assay result>
7.7

$$$$

* * *

# Assay info: Metabolic stability in liver microsomes (intrinsic clearance)
# Type: in vitro ADME
# Condition parameters: mouse, microsomes, pH 7.4, Metabolic Stability Half life (mouse, min.)

>  <Molecule>
CCc1nc2ncc(C)cn2c1C(=O)NCc1ccc(-c2nc3n(n2)CCC(C(F)(F)F)C3)cn1 (stereo not drawn) [Compound 39]

>  <Qualifier>
>

>  <half-life at 1 µM, min>
180

$$$$
>  <Molecule>
CCc1nc2cc(F)ccn2c1C(=O)NCc1ccc(-c2nc3n(n2)CCCC3)cc1 [Compound 120]

>  <Qualifier>
=

>  <half-life at 1 µM, min>
96.6

$$$$
>  <Molecule>
CCc1nc2nc(C)ccn2c1C(=O)NCc1ccc(-c2nc3n(n2)CCC(C(F)(F)F)C3)cc1 (single isomer, unassigned) [Compound 5a]

>  <Qualifier>
>

>  <half-life at 1 µM, min>
180

$$$$
>  <Molecule>
CCc1nc2nc(N)c(C)cn2c1C(=O)NCc1ccc(-c2nc3n(n2)CCC(C(F)(F)F)C3)cc1 (stereo not drawn) [Compound 12ab]

>  <Qualifier>
>

>  <half-life at 1 µM, min>
180

$$$$
>  <Molecule>
CCc1nc2ncc(Cl)cn2c1C(=O)NCc1ccc(-c2nc3n(n2)CCC(C(F)(F)F)C3)cc1 (single isomer, unassigned) [Compound 10a]

>  <Qualifier>
>

>  <half-life at 1 µM, min>
180

$$$$
>  <Molecule>
CCc1nc2ncc(C)cn2c1C(=O)NCc1ccc(-c2nc3n(n2)CC(C(F)(F)F)CC3)cc1 (stereo not drawn) [Compound 24ab]

>  <Qualifier>
>

>  <half-life at 1 µM, min>
180

$$$$
>  <Molecule>
CCc1nc2ccc(F)cn2c1C(=O)NCc1ccc(-c2nc3n(n2)CC[C@H](C(F)(F)F)C3)cc1 [Compound 50]

>  <Qualifier>
=

>  <half-life at 1 µM, min>
118

$$$$
>  <Molecule>
CCc1nc2ncc(C)cn2c1C(=O)NCc1ccc(-c2nc3n(n2)CCC(C(C)(F)F)C3)c(F)c1 (stereo not drawn) [Compound 106]

>  <Qualifier>
=

>  <half-life at 1 µM, min>
115

$$$$
>  <Molecule>
CCc1cnc2nc(CC)c(C(=O)NCc3ccc(-c4cn5c(n4)C[C@H](C(F)(F)F)CC5)cc3)n2c1 [Compound 151]

>  <Qualifier>
=

>  <half-life at 1 µM, min>
22.2

$$$$
>  <Molecule>
CCc1nc2ncc(OC)cn2c1C(=O)NCc1ccc(-c2nc3n(n2)CCC(C(F)(F)F)C3)cc1 (stereo not drawn) [Compound 6ab]

>  <Qualifier>
=

>  <half-life at 1 µM, min>
97.4

$$$$
>  <Molecule>
[2H]C([2H])([2H])c1cnc2nc(CC)c(C(=O)NCc3ccc(-c4nc5n(n4)CC[C@H](C(F)(F)F)C5)cc3)n2c1 [Compound 51]

>  <Qualifier>
>

>  <half-life at 1 µM, min>
180

$$$$
>  <Molecule>
CCc1nc2ncccn2c1C(=O)NCc1ccc(-c2cn3c(n2)CC(C(F)(F)F)CC3)c(F)c1 (stereo not drawn) [Compound 186]

>  <Qualifier>
>

>  <half-life at 1 µM, min>
180

$$$$
>  <Molecule>
CCc1nc2n(c1C(=O)NCc1ccc(-c3cc4n(n3)CCC(C(F)(F)F)C4)cc1)CCCC2 (stereo not drawn) [Compound 179]

>  <Qualifier>
=

>  <half-life at 1 µM, min>
25.9

$$$$
>  <Molecule>
CCc1nc2ncc(C)cn2c1C(=O)NCc1ccc(-c2nc3n(n2)CCC(C(F)(F)F)C3)c(C)n1 (stereo not drawn) [Compound 37]

>  <Qualifier>
>

>  <half-life at 1 µM, min>
168

$$$$
>  <Molecule>
CCc1nc2ncc(C)cn2c1C(=O)NCc1ccc(-c2cn3c(n2)CC(C(F)(F)F)CC3)cc1 (stereo not drawn) [Compound 3ab]

>  <Qualifier>
=

>  <half-life at 1 µM, min>
102

$$$$

* * *

Reported Chemical stability data, Buffer pH2 values are given for each entry in this list.
# Assay info: HTChem stab assay (chemical stability in buffer pH2, pH4 and pH7 vs DMSO reference)
# Assay type: physicochemical
# Condition parameters: 72 h, 50 µM, pH 2

>  <Compound>
CCc1nc2nc(C)c(C)cn2c1C(=O)NCc1ccc(-c2nc3n(n2)CCC(C(F)(F)F)C3)cc1 (stereo not shown) [Compound 9ab]

>  <Unit name>
%

>  <Chemical stability data, Buffer pH2>
100

$$$$
>  <Compound>
CCc1nc2ncc(C)cn2c1C(=O)NCc1ccc(-c2nc3n(c2C)CCC(C(F)(F)F)C3)cc1 (stereo not shown) [Compound 19ab]

>  <Unit name>
%

>  <Chemical stability data, Buffer pH2>
98

$$$$
>  <Compound>
Cc1cnc2nc(C3CC3)c(C(=O)NCc3ccc(-c4nc5n(n4)CCC(C(F)(F)F)C5)cc3)n2c1 (stereo not shown) [Compound 8ab]

>  <Unit name>
%

>  <Chemical stability data, Buffer pH2>
100

$$$$
>  <Compound>
CCCC1CCn2nc(-c3ccc(CNC(=O)c4c(CC)nc5ncc(C)cn45)cc3)nc2C1 (stereo not shown) [Compound 28ab]

>  <Unit name>
%

>  <Chemical stability data, Buffer pH2>
100

$$$$
>  <Compound>
CCc1nc2ncc(CN)cn2c1C(=O)NCc1ccc(-c2nc3n(n2)CCC(C(F)(F)F)C3)cc1 (stereo not shown) [Compound 16ab]

>  <Unit name>
%

>  <Chemical stability data, Buffer pH2>
74

$$$$
>  <Compound>
CCc1nc2nc(C)ccn2c1C(=O)NCc1ccc(-c2cn3c(n2)CC(C(F)(F)F)CC3)cc1 (stereo not shown) [Compound 34ab]

>  <Unit name>
%

>  <Chemical stability data, Buffer pH2>
94

$$$$
>  <Compound>
CCc1nc2ncc(C)cn2c1C(=O)NCc1ccc(-c2nc3n(n2)CCC(C(F)(F)F)C3)c(F)c1 (stereo not shown) [Compound 22ab]

>  <Unit name>
%

>  <Chemical stability data, Buffer pH2>
97

$$$$

* * *

# Assay info: Metabolic stability in liver microsomes (intrinsic clearance)
# Assay type: in vitro ADME
# Condition parameters: mouse, microsomes, pH 7.4, mouse liver microsomes; read-out: Metabolic Stability (liver microsome intrinsic clearance) Clearance (mouse, μl/min./mg protein)
# Experimental: The test compound was incubated under the generic condition (0.5 mg/ml microsomal protein, 1 mM NADPH, 1 mM MgCl2, and 0.1 M phosphate buffer, pH 7.4, 37° C.) at a defined substrate concentration (typically 1 μM) in liver microsomes of selected species across a time course (typically 0, 5, 10, 20, 40 and 60 minutes) at Cyprotex (Cheshire, UK). The liver microsomes, buffer and test compound will be pre-incubated for 5 minutes. […]
Reported microsomal CLint at 1 µM values are given for each entry in this list.

>  <Compound>
CCc1nc2nc(C)c(C)cn2c1C(=O)NCc1ccc(-c2nc3n(n2)CCC(C(F)(F)F)C3)cc1 (stereo not shown)

>  <microsomal CLint at 1 µM>
13.9 µL/min/mg

$$$$
>  <Compound>
CCc1nc2ncc(C)cn2c1C(=O)NCc1ccc(-c2nc3n(n2)CC(C(F)(F)F)CC3)cc1 (stereo not shown) [Compound 24ab]

>  <microsomal CLint at 1 µM>
< 7.7 µL/min/mg

$$$$
>  <Compound>
CCc1nc2ncc(C)cn2c1C(=O)NCc1ccc(-c2nc3n(n2)CCC(OC)C3)cc1 (stereo not shown) [Compound 26ab]

>  <microsomal CLint at 1 µM>
10.9 µL/min/mg

$$$$
>  <Compound>
CCc1nc2nc(C)ccn2c1C(=O)NCc1ccc(-c2nc3n(n2)CCC(C(F)(F)F)C3)cc1 (single isomer, unassigned) [Compound 5a]

>  <microsomal CLint at 1 µM>
< 7.7 µL/min/mg

$$$$
>  <Compound>
CCc1nc2ncc(C)cn2c1C(=O)NCc1ccc(-c2cc3n(n2)CCC(C(F)(F)F)C3)cc1 (stereo not shown) [Compound 20ab]

>  <microsomal CLint at 1 µM>
21.3 µL/min/mg

$$$$
>  <Compound>
CCc1nc2ncc(C)cn2c1C(=O)NCc1ccc(-c2nc3n(n2)CCCC3)cc1 [Compound 31ab]

>  <microsomal CLint at 1 µM>
< 7.7 µL/min/mg

$$$$
>  <Compound>
CCc1nc2ncccn2c1C(=O)NCc1ccc(-c2nc3n(n2)CC[C@@H](C2CC2)C3)cc1

>  <microsomal CLint at 1 µM>
10.1 µL/min/mg

$$$$
